Below, each entry is listed with its recorded relative viability.
Tested on: SK-LU-1
measurement protocol: relative viability (nuclei count vs DMSO), 5 days (fraction); higher = more cells survive
test settings: first compound 5 µM
Form rule: numeric answer, no unit written next to it.

A selection of reference data follows.
compound	experimental result
O=C(O)CCCCC(CCSCc1ccccc1)SCc1ccccc1 (stereo unspecified) [CPI-613] + N=C(N)NC(=N)NCCc1ccccc1 [Phenformin] (partner 250 µM)	0.547
O=C(O)CCCCC(CCSCc1ccccc1)SCc1ccccc1 (stereo unspecified) [CPI-613] + CC1(C)CCC(c2ccc(Cl)cc2)=C(CN2CCN(c3ccc(C(=O)NS(=O)(=O)c4ccc(N[C@H](CCN5CCOCC5)CSc5ccccc5)c(S(=O)(=O)C(F)(F)F)c4)cc3)CC2)C1 [Navitoclax] (partner 0.5 µM)	0.78

Q: Please tell me: relative viability of O=C(O)CCCCC(CCSCc1ccccc1)SCc1ccccc1 (stereo unspecified) [CPI-613] + C[C@@H](Oc1cc(-c2cnn(C3CCNCC3)c2)cnc1N)c1c(Cl)ccc(F)c1Cl [Crizotinib] (partner 1 µM) , system SK-LU-1?
Result: 1.03

Q: Please tell me: relative viability of O=C(O)CCCCC(CCSCc1ccccc1)SCc1ccccc1 (stereo unspecified) [CPI-613] + Nc1ncn([C@H]2C[C@H](O)[C@@H](CO)O2)c(=O)n1 [Decitabine] (partner 2 µM) , system SK-LU-1?
Result: 0.693

Q: Please tell me: relative viability of O=C(O)CCCCC(CCSCc1ccccc1)SCc1ccccc1 (stereo unspecified) [CPI-613] + CC(=O)Nc1cccc(-n2c(=O)n(C3CC3)c(=O)c3c(Nc4ccc(I)cc4F)n(C)c(=O)c(C)c32)c1 [Trametinib] (partner 0.02 µM) , system SK-LU-1?
Result: 0.452

Q: Please tell me: relative viability of O=C(O)CCCCC(CCSCc1ccccc1)SCc1ccccc1 (stereo unspecified) [CPI-613] + O=C(CCCCCCC(=O)Nc1ccccc1)NO [Vorinostat] (partner 1 µM) , system SK-LU-1?
Result: 0.773
